System: intestinal alkaline phosphatase [Mus musculus]
Test Details: mouse intestinal phosphatase enzyme activation – biochemical, luminescence, single concentration, confirmation (AID 434970)
Applied Conditions: purified mouse IAP, CDP-Star luminescence, 30 min, at 10 µM
About 310 (2.8%) of roughly 11,000 compounds were called active. Cut-off read from the data, not from the text of the source: active = activity change below about -85%; inactive = the rest. What follows is part of a selection rich in actives, with near analogues and random picks from the rest.
Tick one outcome: active, inactive

Please state the recorded outcome for this compound: O=C(CCN1CCN(C/C=C/c2ccccc2)CC1)Nc1ccccc1
inactive

Please state the recorded outcome for this compound: CCOc1ccc(OCCCN(C)C)cc1
inactive

Please state the recorded outcome for this compound: COc1ccc(C(CCN2CCOCC2)c2c(OC)cc(OC)c3c(-c4ccccc4)cc(=O)oc23)cc1 (configuration not stated)
inactive

Please state the recorded outcome for this compound: O=C(Nc1cccc(Cl)c1)Nc1nc(-c2ccc(Cl)cc2)cs1
active

Please state the recorded outcome for this compound: CC[C@]12c3[nH]c4ccc(OC)cc4c3CCN1C(=O)C(CC(=O)NCc1cccc(C(F)(F)F)c1)C[C@@H]2C(=O)N1CCN(C(=O)c2ccco2)CC1 (some centres not stated)
inactive

These measurements were taken from PubChem BioAssay AID434970.
